- assay-explanation: Cell viability assay (AlamarBlue) in HepAD38 cells
- condition-context: human
Listed here: items and their measured CC50 at 6 days.

These recorded examples may help you get a feel for the data.
compound: CN(CC1CCOCC1)C(=O)c1n[nH]c2c1CN(C(=O)c1cc3ccccc3[nH]1)CC2
CC50 at 6 days: > 100 µM

compound: O=C(c1cc2c(Cl)cc(F)cc2[nH]1)N1CCc2[nH]nc(C3CCCO3)c2C1 (centres unmarked)
CC50 at 6 days: > 10 µM

compound: CN(C(=O)c1n[nH]c2c1CN(C(=O)c1cc3ccccc3[nH]1)CC2)C1(COC(=O)c2ccccc2)CC1
CC50 at 6 days: > 10 µM

Please report the measured CC50 at 6 days for `O=C(c1cc2cc(F)c(F)cc2[nH]1)N1CCc2n[nH]c(-c3cscn3)c2C1`
> 10 µM

---

The following compounds are listed with their measured pIC50 values.
- measurement-target: HBV core protein (UniProt P03146)
- Construct: fused on or other part: BODIPY-FL maleimide label on the C-terminal Cys150
- Sequence (P03146 whole entry, looked up, the tested form may be a part): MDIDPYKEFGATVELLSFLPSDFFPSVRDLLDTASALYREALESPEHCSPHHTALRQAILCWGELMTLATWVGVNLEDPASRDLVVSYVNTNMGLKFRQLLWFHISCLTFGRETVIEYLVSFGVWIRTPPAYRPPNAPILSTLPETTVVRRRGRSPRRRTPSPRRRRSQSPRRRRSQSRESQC
- assay-explanation: Biochemical capsid assembly assay (fluorescence quenching)
- Set-up: species or system hepatitis B virus
- condition-context: read-out: Assembly Activity (IC50); BODIPY-FL labelled core protein, 300 μM NaCl, read 6 min after start
pIC50: −log10 of the molar value.

Example results:
compound: C=Cc1scnc1-c1n[nH]c2c1CN(C(=O)c1cc3ccccc3[nH]1)CC2
pIC50: > 5.30

compound: CCOC(=O)CCC1(N(C)C(=O)c2n[nH]c3c2CN(C(=O)c2cc4ccccc4[nH]2)CC3)CC1
pIC50: > 4.00

compound: CN(C(=O)c1[nH]nc2c1CN(C(=O)c1cc3ccc(Cl)cc3[nH]1)CC2)C1CC1
pIC50: > 5.30

compound: CC1c2c(-c3cscn3)n[nH]c2CCN1C(=O)c1cc2ccccc2[nH]1 (centres unmarked)
pIC50: 5.00 to 5.30

compound: CN(CCO)C(=O)c1n[nH]c2c1CN(C(=O)c1cc3cc(F)c(Cl)cc3[nH]1)CC2
pIC50: > 5.30

compound: COCCNC(=O)c1n[nH]c2c1CN(C(=O)c1cc3ccccc3[nH]1)CC2
pIC50: > 4.00

compound: CN(CC1CCOCC1)C(=O)c1n[nH]c2c1CN(C(=O)c1cc3ccccc3[nH]1)CC2
pIC50: > 4.00

Please examine the following record next.
Return reported pIC50. Input compound: `CN(CCO)C(=O)c1n[nH]c2c1CN(C(=O)c1cc3c(F)c(F)ccc3[nH]1)CC2`
> 5.30

---

- measurement-target: HBV core protein (UniProt P03146)
- Construct: fused on or other part: BODIPY-FL maleimide label on the C-terminal Cys150
- assay-explanation: Biochemical capsid assembly assay (fluorescence quenching)
- Set-up: species or system hepatitis B virus
- condition-context: read-out: Assembly Activity (IC50); BODIPY-FL labelled core protein, 300 μM NaCl, read 6 min after start
Reported IC50 values are given for each entry in this list.

Answered examples (3):
compound: CCOCC1(N(C)C(=O)c2[nH]nc3c2CN(C(=O)c2cc4c(F)cc(F)cc4[nH]2)CC3)CC1
IC50: < 5 µM
--
compound: Nc1n[nH]c2c1CN(C(=O)c1cc3ccccc3[nH]1)CC2
IC50: 5 to 10 µM
--
compound: CN(C(=O)c1n[nH]c2c1CN(C(=O)c1cc3ccccc3[nH]1)CC2)C1(C(F)(F)F)CC1
IC50: < 100 µM

Here is the next item to consider.
With HBV core protein (UniProt P03146) as the test system, provide measured IC50 for this compound: `CN(OCCO)C(=O)c1n[nH]c2c1CN(C(=O)c1cc3ccccc3[nH]1)CC2`
< 5 µM

---

- assay-explanation: Cell viability assay (AlamarBlue) in HepAD38 cells
- condition-context: human
test-readout: CC50 at 6 days

compound: CCOCC1(N(C)C(=O)c2[nH]nc3c2CN(C(=O)c2cc4c(Cl)c(F)ccc4[nH]2)CC3)CC1 [Example 364]
assay-result: > 10 µM
--
compound: CON(C)C(=O)c1n[nH]c2c1CN(C(=O)c1cc3c(C(F)(F)F)cccc3[nH]1)CC2 [Example 129]
assay-result: > 32 µM
--
compound: CS(=O)(=O)CCNC(=O)c1n[nH]c2c1CN(C(=O)c1cc3ccccc3[nH]1)CC2 [Example 101]
assay-result: > 100 µM
--
compound: CC(C)(C)OC(=O)N[C@H]1CCN(C(=O)c2n[nH]c3c2CN(C(=O)c2cc4ccccc4[nH]2)CC3)C1 [Example 194]
assay-result: > 10 µM
--
compound: CN(C(=O)c1n[nH]c2c1CN(C(=O)c1cc3ccccc3[nH]1)CC2)C1COC1 [Example 188]
assay-result: > 10 µM

Given the compound COC1CCN(C(=O)c2n[nH]c3c2CN(C(=O)c2cc4ccccc4[nH]2)CC3)CC1 [Example 160] , write its reported CC50 at 6 days.
> 10 µM

Fill in reported CC50 at 6 days for this entry: O=C(c1cc2ccccc2[nH]1)N1CCc2[nH]nc(C(=O)N3CCCN3)c2C1 [Example 124]
> 32 µM

# return recorded CC50 at 6 days for entry Cc1cc(F)cc2[nH]c(C(=O)N3CCc4[nH]nc(C(=O)N(C)CCO)c4C3)cc12 [Example 61]
> 100 µM

---

- assay-explanation: Cell viability assay (AlamarBlue) in HepAD38 cells
- condition-context: human
test-readout: CC50 at 6 days

Reference set, count: 3
smiles-code: C#CCOCC1(N(C)C(=O)c2n[nH]c3c2CN(C(=O)c2cc4ccccc4[nH]2)CC3)CC1
test-readout: CC50 at 6 days
assay-result: > 10 µM
--
smiles-code: O=C(c1cc2c(Cl)c(F)ccc2[nH]1)N1CCc2n[nH]c(-c3cscn3)c2C1
test-readout: CC50 at 6 days
assay-result: > 10 µM
--
smiles-code: CO/N=C(/c1n[nH]c2c1CN(C(=O)c1cc3ccccc3[nH]1)CC2)C1CC1
test-readout: CC50 at 6 days
assay-result: > 10 µM

Proceed to the following item.
Give the value of CC50 at 6 days reported for the following: `O=C(c1cc2ccccc2[nH]1)N1CCc2[nH]nc(C(=O)N3CCOCC3)c2C1`
> 100 µM

---

Measured CC50 at 6 days values are reported for all entries that follow.
- assay-explanation: Cell viability assay (AlamarBlue) in HepAD38 cells
- condition-context: human

compound: O=C(c1cc2ccccc2[nH]1)N1CCc2[nH]nc(C(=O)N3CCCC(F)(F)C3)c2C1
test-readout: CC50 at 6 days
assay-result: > 10 µM
--
compound: CCc1cccc2[nH]c(C(=O)N3CCc4[nH]nc(C(=O)N(C)CCO)c4C3)cc12
test-readout: CC50 at 6 days
assay-result: > 100 µM
--
compound: O=C(NCC1CCOC1)c1n[nH]c2c1CN(C(=O)c1cc3ccccc3[nH]1)CC2 (centres unmarked)
test-readout: CC50 at 6 days
assay-result: > 100 µM
--
compound: O=C(c1cc2c(Cl)cc(F)cc2[nH]1)N1CCc2[nH]nc(C34CC(C3)C4)c2C1
test-readout: CC50 at 6 days
assay-result: > 10 µM
--
compound: O=C(c1cc2ccccc2[nH]1)N1CCc2[nH]nc(C(=O)N3CCC(F)(F)C3)c2C1
test-readout: CC50 at 6 days
assay-result: > 10 µM

Quickly give me recorded CC50 at 6 days for `CN(CCCO)C(=O)c1n[nH]c2c1CN(C(=O)c1cc3ccccc3[nH]1)CC2`
> 100 µM

Report CC50 at 6 days for `CN(CCO)C(=O)c1n[nH]c2c1CN(C(=O)c1cc3c(F)ccc(F)c3[nH]1)CC2`
> 100 µM

Specify reported CC50 at 6 days for the compound shown: `COCC1(N(C)C(=O)c2n[nH]c3c2CN(C(=O)c2cc4c(C(F)F)cccc4[nH]2)CC3)CC1`
> 10 µM

Tell me its CC50 at 6 days given `O=C(c1cc2cc(F)ccc2[nH]1)N1CCc2n[nH]c(C3CCC3)c2C1` as the entry.
> 10 µM

Give the measured CC50 at 6 days for `CC1(C)CCCCN1C(=O)c1n[nH]c2c1CN(C(=O)c1cc3ccccc3[nH]1)CC2`
> 10 µM

Give CC50 at 6 days for `O=C(c1cc2cccc(F)c2[nH]1)N1CCc2n[nH]c(C3CCC3)c2C1`
> 10 µM

Determine from records and report CC50 at 6 days for `CNC(=O)c1n[nH]c2c1CN(C(=O)c1cc3ccccc3[nH]1)CC2`
> 10 µM

Find the measured CC50 at 6 days of `CON(C)C(=O)c1n[nH]c2c1CN(C(=O)c1cc3c(Cl)cc(F)cc3[nH]1)CC2` and report it.
> 32 µM

Supply reported CC50 at 6 days belonging to this compound: `CN(C(=O)c1n[nH]c2c1CN(C(=O)c1cc3ccccc3[nH]1)CC2)C1CC1`
> 10 µM
